# Tested on: merlin negative cell lines
# TEST_DESCRIPTION: Anchorage-independent growth-death assay, merlin negative cell line panel
# Type: cell-based
# APPLIED_CONDITIONS: Homo sapiens, ALL5; second anchorage-independent assay; all 5 merlin negative cell lines; read-out: gIC50 values
# Procedure: Five human mesothelioma cell lines and two additional human lung cancer cell lines available from the ATCC were used in these studies. […] The cellular response to Compound A was evaluated in an anchorage-independent cell growth assay that quantified the extent of cell growth inhibition and the net change in cell population. […] Results were expressed as a percent of the T0 value and plotted against the compound concentration. […]
pIC50: −log10 of the molar value.
MEASUREMENT_TYPE: pIC50

Which measured pIC50 value corresponds to CONC(=O)c1ccccc1Nc1cc(Nc2cc(C)nn2C(C)C)ncc1Cl [Compound A] ?
> 6.60

---

# Tested on: MSTO-211H cells
# TEST_DESCRIPTION: Anchorage-independent growth-death assay (methylcellulose, CellTiter-Glo, 6 days)
# Type: cell-based, human
# APPLIED_CONDITIONS: Homo sapiens; second anchorage-independent assay; MSTO-211H, merlin positive; read-out: Growth Inhibition gIC50
# Experimental: Five human mesothelioma cell lines and two additional human lung cancer cell lines available from the ATCC were used in these studies. […] The cellular response to Compound A was evaluated in an anchorage-independent cell growth assay that quantified the extent of cell growth inhibition and the net change in cell population. […] Results were expressed as a percent of the T0 value and plotted against the compound concentration. […]
MEASUREMENT_TYPE: IC50 (µM)
Express your answer in µM, writing the number without its unit.

Which measured IC50 value corresponds to CONC(=O)c1ccccc1Nc1cc(Nc2cc(C)nn2C(C)C)ncc1Cl ?
10.9

---

# System: MSTO-211H cells
# TEST_DESCRIPTION: Anchorage-independent growth-death assay (methylcellulose, CellTiter-Glo, 6 days)
# Type: cell-based, human
# APPLIED_CONDITIONS: Homo sapiens, 144 h; initial anchorage-independent assay; MSTO-211H, NF2 wild-type, merlin positive; 6 days; read-out: Growth Inhibition gIC50
MEASUREMENT_TYPE: IC50 (µM)
Express your answer in µM, writing the number without its unit.

Test system MSTO-211H cells; read-out IC50; what value for CONC(=O)c1ccccc1Nc1cc(Nc2cc(C)nn2C(C)C)ncc1Cl ?
3.59
